The values you see were collected from ChEMBL document CHEMBL1201862.

Test system: MDA-MB-435
Assay: NCI tumour cell line growth inhibition, 48 h
The source made the active and inactive calls. Rule as the data show it: active = GI50 up to about 1.1 µM and inactive = higher.
Kindly supply the reported GI50 values for the records listed here.

Q) Tell me measured GI50 for CC(=O)Nc1cc(C(=O)Nc2cc(C(=O)Nc3cc(C(=O)Nc4cc(C(=O)Nc5cc(C(=O)NCCC(=O)NCCCN(C)C)n(C)c5)n(C)c4)n(C)c3)n(C)c2)n(C)c1 please.
A) 36.8 µM (inactive)

Q) Tell me measured GI50 for N=C(N)c1ccc(/N=N\c2c(O)c(C(=O)Nc3ccccc3)cc3ccccc23)cc1 please.
A) 41.5 µM (inactive)

Q) Tell me measured GI50 for COc1ccc(C2CCc3c(cnc4nc(N)nc(N)c34)C2)cc1 (stereo not drawn) please.
A) 4.53 µM (inactive)

Q) Tell me measured GI50 for COc1ccc(N[S+]([O-])c2ccc(-c3ccccc3)cc2)cc1 (stereo not drawn) please.
A) > 100 µM (inactive)

Q) Tell me measured GI50 for CCOC(=O)C1(C/C=C/CCl)CCCC1=O (stereo not drawn) please.
A) 20.3 µM (inactive)

Q) Tell me measured GI50 for CC1(C)[C@@H]2C[C@H]1C(Cc1ccccc1C[C@H]1c3cc(-c4ccccn4)ncc3[C@H]3C[C@@H]1C3(C)C)c1cc(-c3ccccn3)ncc12 (stereo partly drawn) please.
A) 0.416 µM (active)

Q) Tell me measured GI50 for COc1cccc(NC(=O)CC(=O)n2nc(-c3ccccc3)c(/N=N/c3ccc(Cl)cc3)c2-c2ccccc2)c1 please.
A) 38.7 µM (inactive)

Q) Tell me measured GI50 for CC[C@H](C)[C@H](NC(=O)[C@H](Cc1ccc(O)cc1)NCC(F)(F)F)C(=O)OC(C)(C)C please.
A) 7 µM (inactive)

====

System: NCI/ADR-RES
Test: NCI tumour cell line growth inhibition, 48 h
Calls of active or inactive are those of the source. No stated cut-off is given here; in the data, active = GI50 up to about 1.1 µM and inactive = higher.
Form entry, call: pick from label 1 = active, label 0 = inactive

Q) What call does the record list for CCN(CC)CCOc1ccc(N2Cc3cc(OC)c(OC)cc3C2=O)cc1 ?
A) label 0

Q) What call does the record list for C1=CC2C=CC(C=C1)P2c1ccccc1 (stereo not given) ?
A) label 0

Q) What call does the record list for O=[N+]([O-])c1cccc2nc3ccccc3c(NCCCN3CCOCC3)c12 ?
A) label 1

Q) What call does the record list for Cc1cn(Cc2cccc(C3=NCCCN3)c2)c(=O)n(Cc2cccc(C3=NCCCN3)c2)c1=O ?
A) label 0

Q) What call does the record list for CN(N=O)c1ccc(/C=C/c2ccnc3ccccc23)cc1 ?
A) label 0

Q) What call does the record list for O=C(Nc1ccccc1C(=O)O)/C(=C/c1ccccc1)NC(=O)c1ccccc1 ?
A) label 0

Q) What call does the record list for CC(=O)Oc1ccn2nc(C)c(Br)c2c1Br ?
A) label 0

Q) What call does the record list for CCOC(=O)C1(C/C=C/CCl)CCCC1=O (stereo not given) ?
A) label 0

Q) What call does the record list for CC[C@H](C)C(=O)O[C@H]1CCC=C2C=C[C@H](C)[C@H](CC[C@@H]3C[C@@H](O)CC(=O)O3)[C@H]21 ?
A) label 0

Q) What call does the record list for C=CC1(CC/C(=C\[N+](=O)[O-])c2ccc(OC)c(OC)c2)OCC(C)(C)CO1 ?
A) label 0

====

Test system: OVCAR-4
Assay: NCI tumour cell line growth inhibition, 48 h
The source made the active and inactive calls. Rule as the data show it: active = GI50 up to about 1.1 µM and inactive = higher.
PARAMETER MEASURED: GI50

Q) Write down measured GI50 (OVCAR-4) for this compound. Nc1nc(=O)n(C2OC(CO)C(O)C2O)c2ncc(-c3ccc(-c4ccccc4)cc3)nc12 (configuration not stated)
A) > 100 µM (inactive)

Q) Write down measured GI50 (OVCAR-4) for this compound. CC1(C)O[C@@H](CBr)C[C@H](C[C@H]2C[C@@H](O)C[C@@H](CCOCc3ccccc3)O2)O1
A) 21.6 µM (inactive)

Q) Write down measured GI50 (OVCAR-4) for this compound. N#CC(C#N)=C1C(=O)NC(N)=C1C#N
A) > 100 µM (inactive)

Q) Write down measured GI50 (OVCAR-4) for this compound. CCOC(=O)CCC(NC(=O)c1ccc(Nc2nc3cc(C(F)(F)F)ccc3nc2-c2ccccc2)cc1)C(=O)OCC (configuration not stated)
A) 21.9 µM (inactive)

Q) Write down measured GI50 (OVCAR-4) for this compound. CN1N=C(c2ccccc2)C(C(c2ccccc2[N+](=O)[O-])C2C(=O)N(C)N=C2c2ccccc2)C1=O (configuration not stated)
A) > 100 µM (inactive)

Q) Write down measured GI50 (OVCAR-4) for this compound. CNS(=O)(=O)c1ccccc1C(=N)c1ccccc1
A) > 100 µM (inactive)

Q) Write down measured GI50 (OVCAR-4) for this compound. c1ccc2cc(CNCCCCNCCCNCc3ccc4ccccc4c3)ccc2c1
A) 1.6 µM (inactive)

Q) Write down measured GI50 (OVCAR-4) for this compound. O=C(NCCCCCCNC(=O)c1cccc2ccccc12)c1cccc2ccccc12
A) 14.4 µM (inactive)

Q) Write down measured GI50 (OVCAR-4) for this compound. c1ccc([C@@H]2N[C@@]3(CO[Si](c4ccccc4)(c4ccccc4)c4ccccc4)CC[C@H]4CN[C@@H]2[C@H]43)cc1
A) 13.6 µM (inactive)

Q) Write down measured GI50 (OVCAR-4) for this compound. Nc1cc2[nH]c(=O)c3cc(Cl)ccc3c2cc1Cl
A) 31.9 µM (inactive)

Q) Write down measured GI50 (OVCAR-4) for this compound. CCCN(C(=O)c1ccccc1)C(C#N)c1ccc(C(C#N)N(CCC)C(=O)c2ccccc2)cc1 (configuration not stated)
A) 14.5 µM (inactive)

Q) Write down measured GI50 (OVCAR-4) for this compound. C=C(C)[C@@H]1CC=C(CO)CC1
A) 515 µM (inactive)

Q) Write down measured GI50 (OVCAR-4) for this compound. OCCCCn1cnc2c(O)ncnc21
A) > 100 µM (inactive)

Q) Write down measured GI50 (OVCAR-4) for this compound. CC(=O)N1c2ccccc2C2=NN=C(N(C)C)SC21 (configuration not stated)
A) 10.4 µM (inactive)

Q) Write down measured GI50 (OVCAR-4) for this compound. O=c1c2cc(I)ccc2nc(SCc2nnco2)n1Cc1ccccc1
A) > 100 µM (inactive)

Q) Write down measured GI50 (OVCAR-4) for this compound. Cc1c(Cl)ccc2c1NC(=O)C2(O)C1Cc2ccccc2C1=O (configuration not stated)
A) 86.5 µM (inactive)

Q) Write down measured GI50 (OVCAR-4) for this compound. CNC(=O)c1nnn(C2CCCCC2)c1S
A) > 100 µM (inactive)

Q) Write down measured GI50 (OVCAR-4) for this compound. COc1ccc(/C=C2\CC3C4CC=C5C[C@@H](O)CC[C@]5(C)C4CC[C@]3(C)\C2=N\O)cc1OC (some centres not stated)
A) 5.02 µM (inactive)

Q) Write down measured GI50 (OVCAR-4) for this compound. CN(C)CCCn1nc(N)c2nc3cc(Cl)ccc3nc21
A) > 100 µM (inactive)

Q) Write down measured GI50 (OVCAR-4) for this compound. CCCCCCc1nn2c(-c3ccncc3)nnc2s1
A) > 10 µM (inactive)

Q) Write down measured GI50 (OVCAR-4) for this compound. N[C@@H](CSCSC[C@H](N)C(=O)O)C(=O)O
A) > 225 µM (inactive)

Q) Write down measured GI50 (OVCAR-4) for this compound. CC(Oc1ccc(OCC2CCCCC2)cc1)C(=O)NCCO (configuration not stated)
A) > 100 µM (inactive)

====

Test system: HCC 2998
Test: NCI tumour cell line growth inhibition, 48 h
Active and inactive are the calls of the source. Cut-off read from the data, not from the text of the source: active = GI50 up to about 1.1 µM and inactive = higher.
PARAMETER MEASURED: GI50

Q) Tell me measured GI50 for CCCN(CCCc1ccccc1)CCc1ccc2[nH]c(=S)[nH]c2c1 please.
A) 13.3 µM (inactive)

Q) Tell me measured GI50 for COc1cc2c(cc1OC)C(=O)/C(=C/c1cc(C)cc(C)c1)C2 please.
A) 0.0601 µM (active)

Q) Tell me measured GI50 for CCOC(=O)c1ccc(Nc2c3c(nc4ccccc24)CCCC3)cc1 please.
A) > 56.4 µM (inactive)

Q) Tell me measured GI50 for O/N=C1/CCCC/C1=C\c1ccc(Cl)c(Cl)c1 please.
A) 29 µM (inactive)

Q) Tell me measured GI50 for CCN(CC)CCNc1n[n+]([O-])c2ccccc2[n+]1[O-] please.
A) 2.07 µM (inactive)

Q) Tell me measured GI50 for CCOC(=O)c1c(N2CCOCC2)[nH]c(=O)c(C(c2ccc(N(C)C)cc2)c2c(O)c(C(=O)OCC)c(N3CCOCC3)[nH]c2=O)c1O please.
A) > 100 µM (inactive)

Q) Tell me measured GI50 for Cc1nc(Nc2ccccc2Cl)sc1C(=O)CC(=O)C(=O)Nc1c(Cl)cccc1Cl please.
A) 39.5 µM (inactive)

Q) Tell me measured GI50 for CC#CCCN(CC#N)Cc1ccccc1 please.
A) > 100 µM (inactive)

Q) Tell me measured GI50 for Cc1nc(Nc2ccc([N+](=O)[O-])cc2)sc1C(=O)/C=C/c1ccc(N(C)C)cc1 please.
A) 78.3 µM (inactive)

Q) Tell me measured GI50 for C[n+]1cccc2ccc3cccnc3c21 please.
A) 49.2 µM (inactive)

Q) Tell me measured GI50 for CCN1CCC(C)OP1(=O)Cc1ccccc1 (stereo not drawn) please.
A) > 100 µM (inactive)

Q) Tell me measured GI50 for COC(=O)c1cc(C)c(C)c2c1NC(=O)CNC2=O please.
A) > 100 µM (inactive)

Q) Tell me measured GI50 for NS(=O)(=O)c1ccc(/N=N/c2ccc(O)c(O)c2)cc1 please.
A) 21.2 µM (inactive)

Q) Tell me measured GI50 for CC1=C(/C=C/C(C)=C/C=C/C(C)=C/C(=O)Nc2ccc(O)cc2)C(C)(C)CCC1 [FENRETINIDE] please.
A) 4.16 µM (inactive)

Q) Tell me measured GI50 for [O-][n+]1cc(SCc2ccccc2)ncc1SCc1ccccc1 please.
A) > 10 µM (inactive)

Q) Tell me measured GI50 for O=C1C2C=CC1C1C(=O)OC(=O)C21 (stereo not drawn) please.
A) > 100 µM (inactive)

Q) Tell me measured GI50 for COc1ccc2c(c1)/C(=C\c1c(Cl)n(-c3ccccc3)c3ccccc13)C(=O)N2 please.
A) 4.89 µM (inactive)

Q) Tell me measured GI50 for CCCCCCCC(=O)N/N=C/c1ccc(Sc2nccn2C)c([N+](=O)[O-])c1 please.
A) 13.4 µM (inactive)

Q) Tell me measured GI50 for Cc1ccc(C2=C(C#N)C(=O)N3CCN=C3S2)cc1 please.
A) > 100 µM (inactive)

Q) Tell me measured GI50 for COc1ccc(/C=C2\CC3C4CC=C5C[C@@H](O)CC[C@]5(C)C4CC[C@]3(C)\C2=N\O)cc1OC (stereo partly drawn) please.
A) 7.13 µM (inactive)

Q) Tell me measured GI50 for CCOCCOc1ccc(OCCOCC)cc1 please.
A) 37.3 µM (inactive)

Q) Tell me measured GI50 for CN(C)C(=O)C1CCC(=C2C(=O)OC(C)(C)OC2=O)N1C (stereo not drawn) please.
A) > 100 µM (inactive)

Q) Tell me measured GI50 for CC(=O)N1c2ccccc2C2=NN=C(N(C)C)SC21 (stereo not drawn) please.
A) 2.72 µM (inactive)
